Parameter: ELISA [abs. corr.]. Scope: all listed entries.
tested-target: T1, CD27 protein (His-tagged, Sino Biological Inc. 10039-H08B1) (human, UniProt P26842 20-192)
T1 construct: bought; coated onto ELISA plates; also called human CD27; recombinant protein; not shown: His tag
T1 sequence (looked up): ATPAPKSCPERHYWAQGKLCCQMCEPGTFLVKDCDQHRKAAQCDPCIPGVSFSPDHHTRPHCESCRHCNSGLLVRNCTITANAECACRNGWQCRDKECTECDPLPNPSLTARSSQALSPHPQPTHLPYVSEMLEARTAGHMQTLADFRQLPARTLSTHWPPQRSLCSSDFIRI
test-summary: ELISA on coated His-tagged CD27; note: test concentration or dose not given here
Give the value in abs. corr. but do not write abs. corr. after it.

stdin: Give its ELISA [abs. corr.] value. Item: P018.S.06.A.A02 (antibody, V domains shown, V regions on human Ig constant parts; also called AB27_95) VH: QEQLVESGGGLVQPEGSLTLTCTSSGFSLNSNYYISWVRQAPGKGLEWIACIDAGSGSTWYASWVKGRFTISKTSSTTVTLQMTSLTAADTATYFCARDDIGTSYEYYFGLWGPGTLVTVSS VL: DVVLTQTPASVSEPVGGTVTIKCQASQTISSYLAWYQQKSGQPPKLLIYSASTLASGVSSRFKGSGSGTEYTLTISDLESADAATYYCQTYYGSDSYVFGGGTEVVVK
stdout: 3.23

stdin: Which ELISA [abs. corr.] value belongs to P018.S.09.A.D04 (antibody, V domains shown, V regions on human Ig constant parts; also called AB27_151) VH: QSVEESGGRLVTPGTPLTLTCTVSGFSLSSNAISWVRQAPGKGLEWIAIITHSDNTFYASWAKGRFTISKASTTVDLKVTSPTTEDTATYFCARDGYVSSSGTYMGGYFDLWGQGTLVTVSS VL: DPVLTQTPSPVSAAVGGTVTINCQASQIIYNDKNLAWYQQKPGQPPKLLIYYASTLASGVSSRFKGSASGTQFTFTISGVQSDDAATYYCQGEFSCSSADCIAFGGGTEVVVK ?
stdout: 3.35

stdin: Could you tell me which ELISA [abs. corr.] is on file for P018.S.07.A.H05 (antibody, V domains shown, V regions on human Ig constant parts; also called AB27_133) VH: QSLEESGGRLVTPGTPLTLTCTASGFSLNSYYINWVRQAPGKGLEWIGFINGYDNTWYASWAKGRFTISRTSTTVDLRITSPTTEDTATYFCARDPGGASGTGRLDLWGQGTLVTVSS VL: DIVMTQTPASVSAAVGGTVTINCQASQSISTALAWYQQKPGQRPKLLIYDASKLASGVPSRFKGNGSGTEFTLTISDLESADAATYYCQCTYYDAYDVGAFGGGTEVVVN ?
stdout: 3.25

stdin: I would be grateful if you could share the reported ELISA [abs. corr.] for P018.S.01.A.D02 (antibody, V domains shown, V regions on human Ig constant parts; also called AB27_11) VH: QSLEESGGRLVTPGTPLTLTCTASGFSLSKYDMGWFRQAPGKGLEWIGMIGASDSTYYASWVKGRFTISKTSTTVDLRITSPTTEDTATYFCAREYPDARGYYYNLWGPGTPVTVSS VL: ALVMTQTPASVEAAVGGTVTINCQASQSISDLLAWYQQKPGQPPKPLIYDASDLASGVPSRFKGSGSGTQFTLTISGVQSDDAATYYCQQGYSITNVDNVFGGGTEVVVK .
stdout: 3.26

stdin: Reported ELISA [abs. corr.] for P018.S.06.A.E04 (antibody, V domains shown, V regions on human Ig constant parts; also called AB27_106) VH: QEQLEESGGDLVQPEGSLTLTCTVSGFSFDSNYWICWVRQAPGKGPEWIACIMTGDGSIYYATWAKGRFTISKTSSTTVTLQMTSLTAADTATYFCARGYDGIHGGDNYGHVFNLWGPGTLVTVSS VL: AFELTQTPFSVSAVVGGTVTINCQASENIYTLLAWYQQKSGQPPKLLIYRASTLTSGVPSRFKGSGSGTQFTLTISDLESADAATYYCQGYYVDSGNTFGGGTEVVVK : what is it?
stdout: 3.16
